Target: P2L-3Ta
Test: competitive EIA: unlabeled antigen varied against HRP-labeled 19P2 ligand (12-25) on P2L-3Ta
Measurement Name: pIC50
Would you please state pIC50, meaning minus log10 of the concentration in mol/L, as a bare number?

[in] Can you share its pIC50? I mean this binder: SRTHRHSMEIRTPDINPAWYASRGIRPVGRX (C-terminal amide) [Human 19P2 ligand (1-31)]
[out] 8.40
